- EXPERIMENTAL_TARGET: rat mGlu5 (Rattus norvegicus (Rat))
- ASSAY_OVERVIEW: mGlu5 Ca2+ flux assay
- Format: cell-based
- CONDITION_INFO: read-out: rat mGlu5 EC50 or IC50
METRIC_NAME: EC50

**Query** Tell me its EC50 given COc1ccc(N(C)Cc2cc3n(n2)CCN(c2cc(F)ccc2Cl)C3=O)cc1 as the entry.
**Result** > 30 µM

**Query** Return reported EC50. Input molecule: O=C1c2cc(CNc3ncccc3F)nn2CCN1c1ccc(F)cc1
**Result** > 30 µM

**Query** Give a short answer stating reported EC50 for CN(Cc1cc2n(n1)CCN(c1ccc(F)cc1)C2=O)c1cc(F)cc(F)c1 .
**Result** > 10 µM

**Query** Retrieve EC50 measured for COc1ccc(N(C)Cc2cc3n(n2)CCN(c2ccc(C#N)cc2)C3=O)cc1 and print it.
**Result** > 30 µM

**Query** Could you please provide reported EC50 for C[C@H]1CN(c2ccc(F)cc2)C(=O)c2cc(CNc3cc(F)cc(F)c3)nn21 ? Thanks!
**Result** > 10 µM

**Query** For the molecule Cc1ccc(NCc2cc3n(n2)CCN(c2ccc(F)cc2)C3=O)cc1 , report EC50.
**Result** > 30 µM

**Query** # return recorded EC50 for input CCCN(Cc1cc2n(n1)CCN(c1ccc(F)c(F)c1)C2=O)c1ccc(OC)cc1
**Result** > 30 µM

**Query** Read off the recorded EC50 for O=C1c2cc(CNc3ccccc3Cl)nn2CCN1c1ccc(F)cc1
**Result** 2.19 µM

Further cases:
**Query** Quote EC50 reported for C[C@@H]1CN(c2ccc(F)cc2)C(=O)c2cc(CNc3ccc(F)cc3)nn21 please.
**Result** > 30 µM

**Query** Please look at this molecule and report its EC50: C[C@H]1CN(c2ccc(F)cc2)C(=O)c2cc(CNc3ccc(F)cc3F)nn21
**Result** 8.19 µM

**Query** Return EC50 (reported value) for this molecule: Cc1ccccc1NCc1cc2n(n1)CCN(c1ccc(F)cc1)C2=O
**Result** > 10 µM

**Query** Look up EC50 of COc1ccc(N(C)Cc2cc3n(n2)CCN(c2ccc(F)cc2)C3=O)cc1 and report it.
**Result** > 30 µM

**Query** Could you please provide reported EC50 for CN(Cc1cc2n(n1)CCN(c1ccc(F)cc1)C2=O)c1cccc(F)c1 ? Thanks!
**Result** 7.76 µM

**Query** Assign EC50 to the following record: O=C1c2cc(CNc3ccc(C(F)(F)F)cc3)nn2CCN1c1ccc(F)cc1
**Result** > 30 µM

* * *

- EXPERIMENTAL_TARGET: rat mGlu5 (Rattus norvegicus (Rat), UniProt P31424)
- Sequence (P31424 21-1203): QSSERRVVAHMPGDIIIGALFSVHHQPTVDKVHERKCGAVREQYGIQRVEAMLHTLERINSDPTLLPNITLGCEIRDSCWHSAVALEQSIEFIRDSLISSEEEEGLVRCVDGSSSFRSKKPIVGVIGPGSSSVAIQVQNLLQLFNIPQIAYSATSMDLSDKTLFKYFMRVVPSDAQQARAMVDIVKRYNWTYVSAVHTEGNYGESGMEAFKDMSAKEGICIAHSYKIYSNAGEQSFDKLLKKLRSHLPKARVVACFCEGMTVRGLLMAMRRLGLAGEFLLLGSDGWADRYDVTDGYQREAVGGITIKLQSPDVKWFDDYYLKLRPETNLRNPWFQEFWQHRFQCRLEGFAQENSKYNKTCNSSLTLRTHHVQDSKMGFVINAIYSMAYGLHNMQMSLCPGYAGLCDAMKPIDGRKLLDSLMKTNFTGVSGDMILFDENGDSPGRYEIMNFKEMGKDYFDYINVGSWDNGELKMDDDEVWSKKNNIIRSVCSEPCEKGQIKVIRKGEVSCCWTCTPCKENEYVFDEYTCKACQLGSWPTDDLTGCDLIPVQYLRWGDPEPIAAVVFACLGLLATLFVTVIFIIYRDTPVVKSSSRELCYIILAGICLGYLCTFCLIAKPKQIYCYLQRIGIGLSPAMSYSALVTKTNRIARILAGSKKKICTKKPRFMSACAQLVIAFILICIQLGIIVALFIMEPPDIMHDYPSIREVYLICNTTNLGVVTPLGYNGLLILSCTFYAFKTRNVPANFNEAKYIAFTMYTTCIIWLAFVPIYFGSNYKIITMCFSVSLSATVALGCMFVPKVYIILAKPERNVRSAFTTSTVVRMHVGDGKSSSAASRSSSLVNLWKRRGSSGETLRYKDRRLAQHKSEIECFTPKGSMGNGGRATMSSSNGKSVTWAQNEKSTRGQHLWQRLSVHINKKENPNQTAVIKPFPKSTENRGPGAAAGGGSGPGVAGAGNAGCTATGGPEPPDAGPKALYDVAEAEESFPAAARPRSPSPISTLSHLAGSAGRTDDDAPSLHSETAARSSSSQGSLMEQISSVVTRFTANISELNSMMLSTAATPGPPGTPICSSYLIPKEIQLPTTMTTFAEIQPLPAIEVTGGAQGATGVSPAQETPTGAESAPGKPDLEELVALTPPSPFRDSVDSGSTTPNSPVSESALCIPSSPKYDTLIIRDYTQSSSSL
- ASSAY_OVERVIEW: mGlu5 Ca2+ flux assay
- Format: cell-based
- CONDITION_INFO: Table 2 compounds with X = NH; read-out: mGlu5 EC50
METRIC_NAME: pEC50
# pEC50: negative log10 of molar concentration; output just the value

Some molecules with recorded pEC50:
**Query** Specify pEC50 for O=C1c2cc(CNc3ccccc3F)nn2CCN1c1ccc(F)cc1 [drawing 30 X = NH] and stop.
**Result** 5.61

**Query** Note pEC50 for the molecule shown: O=C1c2cc(CNc3ccccc3)nn2CCN1c1ccc(F)cc1 [drawing 29 X = NH]
**Result** 5.69

Now take the following molecule into account.
**Query** Look up pEC50 of O=C1c2cc(CNc3cccc(F)c3)nn2CCN1c1ccc(F)cc1 [drawing 31 X = NH] and report it.
**Result** 5.66

* * *

A collection of molecules and their measured IC50
- EXPERIMENTAL_TARGET: rat mGlu3 (Rattus norvegicus (Rat))
- Sequence (P31422 23-879): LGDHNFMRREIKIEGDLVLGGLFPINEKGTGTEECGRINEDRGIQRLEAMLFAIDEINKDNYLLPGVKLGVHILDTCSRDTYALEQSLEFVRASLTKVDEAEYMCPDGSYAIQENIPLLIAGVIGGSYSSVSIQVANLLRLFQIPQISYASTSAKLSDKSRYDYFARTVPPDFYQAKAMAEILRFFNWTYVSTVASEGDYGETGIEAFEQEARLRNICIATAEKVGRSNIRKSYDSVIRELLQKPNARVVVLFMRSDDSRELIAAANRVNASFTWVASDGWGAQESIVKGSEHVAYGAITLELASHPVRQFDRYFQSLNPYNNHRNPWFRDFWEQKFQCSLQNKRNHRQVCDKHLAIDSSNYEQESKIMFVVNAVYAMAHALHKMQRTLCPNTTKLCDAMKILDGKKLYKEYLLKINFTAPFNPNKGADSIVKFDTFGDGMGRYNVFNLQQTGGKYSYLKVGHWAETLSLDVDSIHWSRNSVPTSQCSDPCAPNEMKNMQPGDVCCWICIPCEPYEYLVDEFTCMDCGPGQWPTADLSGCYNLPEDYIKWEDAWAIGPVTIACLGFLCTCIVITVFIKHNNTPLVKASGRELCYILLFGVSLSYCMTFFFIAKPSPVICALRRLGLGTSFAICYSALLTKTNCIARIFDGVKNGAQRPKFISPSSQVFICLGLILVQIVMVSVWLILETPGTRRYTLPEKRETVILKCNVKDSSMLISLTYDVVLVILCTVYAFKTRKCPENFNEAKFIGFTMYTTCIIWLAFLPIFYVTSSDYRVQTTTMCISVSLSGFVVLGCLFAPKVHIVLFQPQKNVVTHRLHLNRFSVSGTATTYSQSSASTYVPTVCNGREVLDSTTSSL
- ASSAY_OVERVIEW: mGlu3 Ca2+ flux assay
- Assay type: cell-based
- CONDITION_INFO: NAM potency, decrease of glutamate EC80 response; >30,000 = no measurable activity; >10,000 = no plateau; read-out: rat mGlu3 IC50
State just the number; it will be interpreted in nM.

**Query** Please indicate recorded IC50 of COc1cccc(N(C)Cc2cc3n(n2)CCN(c2ccc(F)cc2)C3=O)c1 measured with rat mGlu3 (Rattus norvegicus (Rat)).
**Result** 1020

**Query** Enter IC50 (test system rat mGlu3 (Rattus norvegicus (Rat))) for COc1ccc(N(C)Cc2cc3n(n2)CCN(c2ccc(F)cn2)C3=O)cc1
**Result** 1140

**Query** Give rat mGlu3 (Rattus norvegicus (Rat)) IC50 for the following molecule: COc1ccc(N(C)Cc2cc3n(n2)CCN(c2cc(Cl)ccc2F)C3=O)cc1
**Result** 1260

**Query** // fetch IC50; item: COc1cccc(NCc2cc3n(n2)[C@@H](C)CN(c2ccc(F)cc2)C3=O)c1 ; system: rat mGlu3 (Rattus norvegicus (Rat))
**Result** 10000

**Query** Specify the recorded IC50 for Cc1ccccc1NCc1cc2n(n1)CCN(c1ccc(F)cc1)C2=O , system: rat mGlu3 (Rattus norvegicus (Rat)).
**Result** 2390

**Query** State, for rat mGlu3 (Rattus norvegicus (Rat)), measured IC50 of the molecule listed here: C[C@H]1CN(c2ccc(F)cc2)C(=O)c2cc(CNc3ccc(Cl)cc3)nn21
**Result** 1310

Others:
**Query** Write down the reported IC50 (system: rat mGlu3 (Rattus norvegicus (Rat))) of O=C1c2cc(CNc3ccc(OC(F)F)cc3F)nn2CCN1c1cccc(Cl)c1
**Result** 1390

**Query** Find IC50 for N#Cc1ccc(NCc2cc3n(n2)CCN(c2ccc(F)cc2)C3=O)cc1 on rat mGlu3 (Rattus norvegicus (Rat)) and write it down.
**Result** 4780

**Query** // fetch IC50 for COc1ccc(N(C)Cc2cc3n(n2)CCN(c2ccccc2C)C3=O)cc1 ; system: rat mGlu3 (Rattus norvegicus (Rat))
**Result** 2000

* * *

// values below are reported Fold selectivity (mGlu3 vs. mGlu5)
- EXPERIMENTAL_TARGET: rat mGlu5 (Rattus norvegicus (Rat), UniProt P31424)
- ASSAY_OVERVIEW: mGlu5 Ca2+ flux assay
- Type: cell-based
- CONDITION_INFO: ratio of rat mGlu5 EC50 or IC50 to rat mGlu3 IC50

Reference set, count: 6
**Query** Report Fold selectivity (mGlu3 vs. mGlu5), nothing else, for this compound: CN(Cc1cc2n(n1)CCN(c1ccc(F)cc1)C2=O)c1cccc(Cl)c1
**Result** >12

**Query** Please report Fold selectivity (mGlu3 vs. mGlu5) for the following compound: CN(Cc1cc2n(n1)CCN(c1ccc(F)cc1)C2=O)c1ccccc1F
**Result** >34

**Query** Consider the compound COc1ccc(N(C)Cc2cc3n(n2)CCN(c2c(F)cc(Cl)cc2F)C3=O)cc1 . State its measured Fold selectivity (mGlu3 vs. mGlu5).
**Result** >16

**Query** Report Fold selectivity (mGlu3 vs. mGlu5), nothing else, for this compound: O=C1c2cc(CNc3cc(Cl)ccn3)nn2CCN1c1ccc(F)cc1
**Result** >7.5

**Query** Answer with the recorded Fold selectivity (mGlu3 vs. mGlu5) of COc1ccc(N(C)Cc2cc3n(n2)CCN(c2cccnc2)C3=O)cc1 only.
**Result** >6.3

**Query** Input COc1ccc(N(C)Cc2cc3n(n2)CCN(c2cc(F)cc(F)c2)C3=O)cc1 , output reported Fold selectivity (mGlu3 vs. mGlu5).
**Result** >35

Further cases:
**Query** Please look at this compound and report its Fold selectivity (mGlu3 vs. mGlu5): O=C1c2cc(CNc3ccc4c(c3)OC(F)(F)O4)nn2CCN1c1ccc(F)cc1
**Result** >3.4

**Query** Report Fold selectivity (mGlu3 vs. mGlu5) for COc1ccc(N(C)Cc2cc3n(n2)CCN(c2cc(F)cc(Cl)c2)C3=O)cc1
**Result** >21

* * *

- EXPERIMENTAL_TARGET: rat mGlu5 (Rattus norvegicus (Rat), UniProt P31424)
- ASSAY_OVERVIEW: mGlu5 Ca2+ flux assay
- Type: cell-based
- CONDITION_INFO: Table 2 compounds with X = NMe; read-out: mGlu5 EC50
Documented EC50 across a set of compounds

**Query** Look up and report measured EC50 for this entry: CN(Cc1cc2n(n1)CCN(c1ccc(F)cc1)C2=O)c1ccccc1 [drawing 29 X = NMe]
**Result** > 30 µM

---
**Query** Specify measured EC50 for CN(Cc1cc2n(n1)CCN(c1ccc(F)cc1)C2=O)c1ccc(F)cc1 [drawing 32 X = NMe] .
**Result** > 30 µM

**Query** Fill in reported EC50 for this entry: CN(Cc1cc2n(n1)CCN(c1ccc(F)cc1)C2=O)c1ccccc1F [drawing 30 X = NMe]
**Result** > 30 µM

**Query** Given CN(Cc1cc2n(n1)CCN(c1ccc(F)cc1)C2=O)c1cccc(F)c1 [drawing 31 X = NMe] , respond with its EC50.
**Result** 7.76 µM
